# EXPERIMENTAL_DETAILS: Pharmacokinetic assay in rats, oral
# Type: in vivo
# RECORDED_CONDITIONS: rat, male SD rats, 5 mg/kg single intragastric administration, plasma
REPORTED_PROPERTY: AUC(0-inf) (ng·h/mL)
Numeric only. Scale: ng·h/mL

- COMPOUND: "Nc1nn2ccc3nc2c1C(=O)NCCOc1ncc(F)cc1[C@H]1C[C@H](F)CN31 [Example 14]"
  ASSAY_VALUE: 504
- COMPOUND: "C[C@H]1CNC(=O)c2c(N)nn3ccc(nc23)N2C[C@@H](F)C[C@@H]2c2cc(F)cnc2O1 [Example 15]"
  ASSAY_VALUE: 494

Proceeding to the next compound to report its AUC(0-inf).
q: Give a short answer stating reported AUC(0-inf) for Nc1nn2ccc3nc2c1C(=O)NCCOc1ncc(F)cc1[C@H]1CCCN31 [Example 33] .
a: 513

###

# MEASURED_TARGET: UniProt P04629
IC50 strictly less than 0.5 nM = Condition met. Otherwise Condition not met.

- COMPOUND: "Nc1nn2ccc3nc2c1C(=O)NCCCOc1ccc(F)cc1[C@H]1CCCN31"
  DISCRETE_LABEL: "Condition not met"
- COMPOUND: "Nc1nn2ccc3nc2c1C(=O)NCCOc1ccc(F)cc1[C@@H]1CCCN31"
  DISCRETE_LABEL: "Condition not met"
- COMPOUND: "Nc1nn2ccc3nc2c1C(=O)NCCOc1ncccc1C1CCCN31 (centres unmarked)"
  DISCRETE_LABEL: "Condition not met"
- COMPOUND: "Nc1nn2ccc3nc2c1C(=O)NCCOc1ncccc1[C@H]1CCCN31"
  DISCRETE_LABEL: "Condition met"
- COMPOUND: "Nc1nn2ccc3nc2c1C(=O)NCCCn1cc(F)cc(c1=O)C1CCCN31 (centres unmarked)"
  DISCRETE_LABEL: "Condition not met"

Consider the record given below.
q: Dear colleague, could you confirm whether IC50 of `Nc1nn2ccc3nc2c1C(=O)NCCOc1ncc(F)cc1[C@H]1C[C@@H](O)CN31` falls below 0.5 nM? Thanks.
a: Condition met

###

# EXPERIMENTAL_DETAILS: Pharmacokinetic assay in rats, oral
# Type: in vivo
# RECORDED_CONDITIONS: rat, male SD rats, 5 mg/kg single intragastric administration, plasma
REPORTED_PROPERTY: Cmax (ng/mL)
Please state the figure in ng/mL; there is no need to write the unit.

# annotated cases, reported Cmax shown
- COMPOUND: "C[C@H]1CNC(=O)c2c(N)nn3ccc(nc23)N2C[C@@H](F)C[C@@H]2c2cc(F)cnc2O1 [Example 15]"
  Cmax (ng/mL): 285
- COMPOUND: "Nc1nn2ccc3nc2c1C(=O)NCCOc1ncc(F)cc1[C@H]1CCCN31 [Example 33]"
  Cmax (ng/mL): 142

Next:
q: Supply reported Cmax belonging to this compound: Nc1nn2ccc3nc2c1C(=O)NCCOc1ncc(F)cc1[C@H]1C[C@H](F)CN31 [Example 14]
a: 140

###

Entries with reported IC50 on TrkA^WT kinase (Homo sapiens (Human), UniProt P04629)
Sequence (P04629 33-796): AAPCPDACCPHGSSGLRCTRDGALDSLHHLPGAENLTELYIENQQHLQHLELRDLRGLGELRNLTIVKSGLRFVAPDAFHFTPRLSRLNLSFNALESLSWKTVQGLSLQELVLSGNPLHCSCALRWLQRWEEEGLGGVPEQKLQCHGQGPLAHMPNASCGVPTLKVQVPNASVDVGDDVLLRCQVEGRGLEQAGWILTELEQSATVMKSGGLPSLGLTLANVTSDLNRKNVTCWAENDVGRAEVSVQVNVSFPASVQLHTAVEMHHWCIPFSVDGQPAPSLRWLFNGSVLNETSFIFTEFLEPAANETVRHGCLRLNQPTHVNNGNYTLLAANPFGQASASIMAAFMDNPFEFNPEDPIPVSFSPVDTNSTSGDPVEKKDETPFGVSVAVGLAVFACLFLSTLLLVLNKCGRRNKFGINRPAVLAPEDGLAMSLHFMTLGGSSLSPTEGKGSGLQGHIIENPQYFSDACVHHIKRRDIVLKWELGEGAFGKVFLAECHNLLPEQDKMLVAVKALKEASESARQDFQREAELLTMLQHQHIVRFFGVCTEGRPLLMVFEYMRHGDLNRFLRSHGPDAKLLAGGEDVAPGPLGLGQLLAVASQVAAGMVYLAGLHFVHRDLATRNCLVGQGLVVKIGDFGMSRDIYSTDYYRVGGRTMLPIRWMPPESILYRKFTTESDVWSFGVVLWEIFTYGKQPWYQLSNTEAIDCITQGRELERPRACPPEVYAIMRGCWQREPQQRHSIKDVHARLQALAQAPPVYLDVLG
Give the number; nM is assumed, so skip it.

- COMPOUND: "Nc1nn2ccc3nc2c1C(=O)NCCCCOc1ncc(F)cc1[C@H]1C[C@H](F)CN31"
  IC50 (nM): 0.51

q: Write IC50 of `CN1CCCOc2ncc(F)cc2[C@H]2C[C@H](F)CN2c2ccn3nc(N)c(c3n2)C1=O` ; system used: TrkA^WT kinase (Homo sapiens (Human), UniProt P04629)
a: 0.61

q: Output reported IC50 of the compound `C[C@@H]1CCc2ncc(F)cc2[C@H]2CCCN2c2ccn3nc(N)c(c3n2)C(=O)N1` on TrkA^WT kinase (Homo sapiens (Human), UniProt P04629).
a: 0.31

q: Determine reported IC50 for `Nc1nn2ccc3nc2c1C(=O)NCCOc1ncc(F)cc1[C@H]1C[C@H](F)CN31` ; test system: TrkA^WT kinase (Homo sapiens (Human), UniProt P04629).
a: 0.68

q: Report value: IC50, system: TrkA^WT kinase (Homo sapiens (Human), UniProt P04629), compound: `C[C@H]1CCc2ncc(F)cc2[C@H]2C[C@H](F)CN2c2ccn3nc(N)c(c3n2)C(=O)N1`
a: 0.25

q: Give IC50 for this entry on TrkA^WT kinase (Homo sapiens (Human), UniProt P04629): `Nc1nn2ccc3nc2c1C(=O)NCCCc1ncc(F)cc1[C@H]1C[C@H](F)CN31`
a: 0.21

q: Fill in: IC50 on TrkA^WT kinase (Homo sapiens (Human), UniProt P04629), entry `Nc1nn2ccc3nc2c1C(=O)NCCCOc1ncc(F)cc1[C@H]1CCCN31`
a: 0.4

q: Param request: IC50 | system TrkA^WT kinase (Homo sapiens (Human), UniProt P04629) | item `Nc1nn2ccc3nc2c1C(=O)NCCCOc1ncccc1[C@H]1CCCN31`
a: 0.47

q: Report value only: IC50, TrkA^WT kinase (Homo sapiens (Human), UniProt P04629), Nc1nn2ccc3nc2c1C(=O)NCCCOc1ncc(F)cc1C1C[C@@H](F)CN31 (some centres unmarked)
a: 0.64

q: Please indicate recorded IC50 of `C[C@H]1CNC(=O)c2c(N)nn3ccc(nc23)N2C[C@@H](F)C[C@@H]2c2cc(F)cnc2O1` measured with TrkA^WT kinase (Homo sapiens (Human), UniProt P04629).
a: 0.45

q: Fill in IC50 for Nc1nn2ccc3nc2c1C(=O)NCCCOc1ncc(F)cc1C1CCCN31 (centres unmarked) tested with TrkA^WT kinase (Homo sapiens (Human), UniProt P04629).
a: 0.57

q: Identify measured IC50 obtained with TrkA^WT kinase (Homo sapiens (Human), UniProt P04629) for Nc1nn2ccc3nc2c1C(=O)NCCCCc1cccc(n1)C1CCCN31 (centres unmarked) .
a: 0.84

q: Would you please give the reported IC50 of `Nc1nn2ccc3nc2c1C(=O)NCCOc1ccc(F)cc1[C@H]1CCCN31` with TrkA^WT kinase (Homo sapiens (Human), UniProt P04629)?
a: 0.41

q: Fill in: IC50 on TrkA^WT kinase (Homo sapiens (Human), UniProt P04629), entry `Nc1nn2ccc3nc2c1C(=O)NCCCn1cc(F)cc(c1=O)[C@H]1CCCN31`
a: 0.57

src = patent US11098060B2
